FYI, the data here is from the supplement of paper PMC10567573.

B1: HNF4A (parent)
chain: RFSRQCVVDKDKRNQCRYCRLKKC

Variants of: B1
Method: protein stability index of a GFP-peptide fusion (GPS, HEK-293T) (PSI 1-6); higher = more stable;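 note: lentivirally expressed fusions sorted by FACS into six bins by GFP to DsRed ratio, PSI derived from sequencing read proportions per bin multiplied by bin number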
Condition Summary: c terminus: a fixed tail appended
variants and their reported protein stability index
Endpoint: protein stability index

Y18F 2.63
L21V 2.31
C24E 1.01
K10M 2.9
K12F 2.25
C19W 2.46
D11P 2.9
D9C 2.69
K12N 2.41
V7R 2.4
L21N 3.33
